# Experimental Target: T1, human GIP receptor (hGIPr) (Homo sapiens, UniProt P48546)
# T1 construct: expressed in transfected cells
# T1 sequence (P48546 22-466): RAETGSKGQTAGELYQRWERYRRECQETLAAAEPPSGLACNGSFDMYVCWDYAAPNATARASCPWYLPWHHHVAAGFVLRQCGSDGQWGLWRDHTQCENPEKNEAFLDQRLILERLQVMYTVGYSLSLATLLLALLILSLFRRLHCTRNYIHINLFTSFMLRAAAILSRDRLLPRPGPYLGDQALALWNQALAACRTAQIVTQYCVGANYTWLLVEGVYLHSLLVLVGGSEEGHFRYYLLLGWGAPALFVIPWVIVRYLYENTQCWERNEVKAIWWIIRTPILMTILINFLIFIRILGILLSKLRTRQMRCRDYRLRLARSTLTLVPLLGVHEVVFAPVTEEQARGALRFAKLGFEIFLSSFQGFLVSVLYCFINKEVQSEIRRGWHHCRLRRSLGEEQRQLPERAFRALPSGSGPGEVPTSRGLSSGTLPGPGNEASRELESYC
# Test Description: BSA-cAMP assay, cells expressing human GIP receptor
# Format: cell-based
# Condition Details: BSA-cAMP assay; batch 1 unless a batch is given; read-out: cAMP activity hGIPr (EC50)
Endpoint: EC50 (nM)
Respond numerically; units are nM and should not be typed.

IP250 (protein, /note=“Description of Artificial Sequence Synthetic Peptide-linker-hinge polypeptide”) YSEGTFTSDVSIAMDRQAIDEFIAWLLKGGAAAGGSGSTASSGSGSATGGGGAATHTCPPCPAPEF :: 0.11
IP208: isolated polypeptide named in b21; sequence stands in a table not shown here (protein, /note=“Description of Artificial Sequence Synthetic Peptide-linker-hinge polypeptide”) YSEGTFTSDVSSYLEGQAAKEFIAWLLAGAAAGGSGSTASSGSGSATGGGGAATHTCPPCPAPEF :: 17
IP204: isolated polypeptide named in b21; sequence stands in a table not shown here (protein, /note=“Description of Artificial Sequence Synthetic Peptide-linker-hinge polypeptide”) HGEGTFISDYSIAMDKIHQQDFVNWLLAQKAAAGGSGSTASSGSGSATGGGGAATHTCPPCPAPEF :: 0.12
IP173: isolated polypeptide named in b21; sequence stands in a table not shown here (protein, /note=“Description of Artificial Sequence Synthetic Peptide-linker-hinge polypeptide”) YSEGTFTSDVSSYLEEQAAKEFIAWLLAGAAAGGSGSTASSGSGSATGGGGAATHTCPPCPAPEF :: 1.2

Using the record for IP150: isolated polypeptide named in b21; sequence stands in a table not shown here (protein, /note=“Description of Artificial Sequence Synthetic Peptide-linker-hinge polypeptide”) YSEGTFTSDVSSYLEGQAAKEFIAWLVAGGAPPGGSGSTASSGSGSATGGGGAATHTCPPCPAPEF , report its EC50. 16
